- measurement notes: amyloid nucleation score (Sup35N fusion, yeast selection) (log enrichment); library NNK2; higher = more nucleation; inactive = no reads after selection;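 also: zero at mode of non-aggregating sequences after 7 days selection at 30°C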
Recorded amyloid nucleation score values for a group of sequences are listed next.
# print the numeric value only

Past entries and their recorded results:
{"sequence data": "AFICMFVIRFDWYNMS", "amyloid nucleation score": -0.558}
{"sequence data": "SVRMYWAGLLSENKRYNSQS", "amyloid nucleation score": 3.89}
{"sequence data": "HILRQGQYGYVCCASASYEC", "amyloid nucleation score": 7.31}

So, IQASSLMVAKERFWGDLWWL ? Its amyloid nucleation score was 4.34

Recorded result, LGRNGASYLNDSCRIPNAGK , amyloid nucleation score: -0.562

Entry LYIMDLFSTAWFDMLYVKGR — recorded amyloid nucleation score = -1.45

# amyloid nucleation score (sequence: KWKASVSFFNGHWDGLFANL ) is 5.07

The sequence identified as SMLLVAFWWKGGWTRISPCQ registered its amyloid nucleation score at 0.762
